Source of measurements: patent US20250250357A1

- Tgt: T1, human MSLN-R3-his protein (human, UniProt Q13421 487-598)
- T1 construct: it is put last here; also called human MSLN-R3 protein; hMSLN-R3-his; not shown: His tag
- Assay procedure: ELISA on coated antigen, antibody 0.0002 nM
Exercise: for every item that follows, state its recorded OD450.
One number for each entry, in OD.

Check out these entries, answers already filled in.
[[record]]
binder = "S009-F7.26.15 (antibody, human IgG1, kappa, V domains shown, Human-murine chimeric antibody, human IgG1 heavy and kappa light constant regions) VH: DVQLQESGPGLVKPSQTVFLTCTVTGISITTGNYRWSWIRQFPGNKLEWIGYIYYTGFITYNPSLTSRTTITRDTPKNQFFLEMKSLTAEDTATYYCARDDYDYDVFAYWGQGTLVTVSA VL: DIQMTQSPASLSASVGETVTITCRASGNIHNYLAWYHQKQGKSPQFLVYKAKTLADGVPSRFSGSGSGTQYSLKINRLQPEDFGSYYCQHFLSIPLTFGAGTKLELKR"
result_type = "OD450"
recorded_measurement = 0.16

[[record]]
binder = "S009-F7.67.12 (antibody, human IgG1, kappa, V domains shown, Human-murine chimeric antibody, human IgG1 heavy and kappa light constant regions) VH: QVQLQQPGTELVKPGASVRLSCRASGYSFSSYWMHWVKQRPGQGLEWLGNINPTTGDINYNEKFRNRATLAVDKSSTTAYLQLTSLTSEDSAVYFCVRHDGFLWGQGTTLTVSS VL: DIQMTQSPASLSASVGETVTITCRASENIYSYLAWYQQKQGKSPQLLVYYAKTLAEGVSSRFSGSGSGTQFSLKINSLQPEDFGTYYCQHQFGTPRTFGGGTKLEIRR"
result_type = "OD450"
recorded_measurement = 0.11


Challenge: So what does the record say about OD450 for Tab106 (YP218, hIgG1) (antibody, V domains shown, Control antibody; YP218 VH and VL recombined into human IgG1 CH and CL expression vectors; also called YP218 human IgG1 antibody) VH: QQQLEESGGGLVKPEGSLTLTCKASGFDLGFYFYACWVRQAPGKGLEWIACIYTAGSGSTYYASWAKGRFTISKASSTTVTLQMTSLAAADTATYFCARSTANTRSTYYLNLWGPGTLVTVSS VL: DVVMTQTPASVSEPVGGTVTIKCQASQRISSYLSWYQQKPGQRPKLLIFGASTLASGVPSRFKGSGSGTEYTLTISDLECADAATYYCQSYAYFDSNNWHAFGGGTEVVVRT ?
Response given: 0.35
